experiment: soluble fraction after stress (log2 fold change); higher = more stays soluble; pooled small domains, quantitative proteomics; settings: stress: 50 degC
// label = satisfied if soluble fraction (log2) is not less than -0.2, otherwise not satisfied

chain | class-label
HMHALSVKFSDEAAKTLPYDILSALRDVLALDPRPGYSRDENKIYRFEYADYNISFSVKDKTLTVLSAEK | not satisfied
HMANYHDIAADLRSKINHGFYEEEKKLPKQSELAADYQTSRVTIQKALNILQMEGIIYGKKGTGTFIRDSY | not satisfied
HMGELRAPLPGVIVSIPVKEGDEVKAGQAILIIEAMKMESEISSPIDAKVAKIVVKERVLVQEGDILIILE | not satisfied
HMKDGMRVYITYHDSEEEPEKPIGDGTTKGWHTNSTASVVWISQKVAESADLGIWGDPIRIKGEA | satisfied
HMELEDTYTKNLDASLARLDEYQASKGLTDEQVDEVINSLIADAENIIMGVFTPELIDSKLKAMNYDQDV | satisfied
HMGLIAPMPGQIRSVAVSVGDVVKKGQTLLTMEAMKMEIRIQALKDGRVTALHAAQGQTVEGEQILIEVE | satisfied
HMNRKILVLLAGKEQITDNVSVMQSIHRYAFINTATINKAQHEILIEKEEIRQEALTLIHEFLK | satisfied

----------
experiment: soluble fraction after stress (log2 fold change); higher = more stays soluble; pooled small domains, quantitative proteomics; settings: stress: 50 degC

chain | soluble fraction (log2)
HMAPAPYLVKVTANKLNIRSGPGTNYKIQGAITDKGTYTIVDTQGRWGKLKSGAGWIYLNYTKK | -1.9
HMTNIELYQRLLNLGFTPAQAKILLVQYDETRLTDNLNYVDFKKQQGNIENLPAYTTTIIKKDVRL | -0.389
HMTLPEKSKRLFSQDDFWDQIFYRIGEGQSLREVSKYYKIPYTTIHDRIHSDEGIKLKYLEALTS | -0.71
HMVVRKHDRYYTPEHRKLLMDTYERTNKYPTKQDMSELAKIIGVLPIKILWWYTHRRRQDRRKGEESSSP | -0.0096
HMQSMEIDENEIPSIDKLSEYIEYFKRIYNALFDDKQLAITNIDVLERHFANNFNTLRFKMDE | -0.0595
HMHFENEETFVLPLVREGFSEQQQLEMVDRLLFDANTDNPRWIIDWMASELPSTQRELLLDLEKRLAEVRS | -0.117
HMGIRQGKVTSTFVNVRSGASTANAKVGELHKGDVVSLIEKVANFWRIGPGQFVSADYIQVLAS | -0.508
HMPHTDATDKQIIALILETLKDGQKHSVSEMTFPGIPREKTAQLLHQMIEEETVRIQNGVLFLPH | -0.109

----------
test: soluble fraction after stress (log2 fold change); higher = more stays soluble; pooled small domains, quantitative proteomics; conditions: stress: 50 degC
Listing: soluble fraction (log2) of selected sequences

chain | soluble fraction (log2)
HMVFQTAAEKAYEIISKKIMKGEYEPGMRLVRRQLAQELGVSPIPILEAMKRLEQDGLIEYKAHWGSIVTI | -1.97
HMNKTVKIPNVSNLSREDAESVLKENGISVNSEVKQIESDTIEKGKVVKTDPSIGTSVKKGRSITIYVSSG | 0.0637
HMWTKKELWNAIAKLPKKQRTVVMMRIAQNLPYKDISEITGMSIGSAKVNYHHAVNSLKQWLS | -0.59
HMGGAYATVKLSSSSSQLNVRASASTASRVVARLSHGFRVEVLGVSGDWVKIRALGVEGYVARAYLALEGE | -0.374
HMTNEPRLTNMGFNKMLIENYKMILEYQDFFIRISTQIGIININGFDLKLGEMTADEVLVTGKIESIDL | 0.53
HMQKFINQEHEKAYNLMLEKDYQQALKIFDDLIYLFPNEANLLSDRGVIFIHLNKKEAALQDFDQAVF | -2
HMKLGYTVHGNVVTVKAVANGISLYNTIGQKVAESTDGQTVKAPAHGVYILSVQGKSGSRETAKIVI | -0.39
HMGDLDLVTFGQRLRHLRRSRNMTLSELGERVGRAPSQLSLLENGKREPKLSLLTALAKALDVSVEEL | -0.75
HMDEMPVEFVKISIKAGHPWENRKIKDLASLPDLLLVLILRGEERIIPNGNTVVLAGDKIVLSALSPE | -0.936
HMTDIDATSIERAVAKRRHFFLSNIQDLTMKMARRLIEKDLGLAPKHLDAAPFKTRITELVDAVIALGD | -0.165
HMEISNWLEEIGLSRYTETLSEFPLEDLVEFTDDDFKELGVLTPHRKKLLAAIATLNNDASSN | -0.255
HMAKNIEVPNLVGSTISVARNDLKQLGLHVIVRDSVWSEDKKIDTILEQFPEPGKKLKPEGVVQVVVSI | -0.408
HMAVPFTIDVSQNGRYFIEEDNQVVEVSIGFLEDRFLRIIKSNPDIEVIIRGDAKASYESIAELLAVLQ | -1.06
HMQQSVSSLVRRYMLQTIPGINFSLKSTALALNMSDRTLQRKLLSENTSYQIILDDVRKELAIKYLKE | -3.19
HMKPLRPVHLEIQTHRLSPVGILRSSFRQAGKVMHSNHGRITGLNLEQLKLIQAAFAGEALPK | -0.0219
HMGHEALSSKLDEIQGVGKEKRSLLLDHFKTFERIKNASMEELEAVPSLGKNTAKAVFRFFHS | 0.07
HMTVVHRQVHLQPDQGAFRAALYSHKAVLSEQTDDQGAINLEIRLPESDFLRLLNSSGLKLQDLVP | -0.0198
HMNAKKSTLQLDLLKQLLEGNKISLKDFSLSNEISIRTAQRYIEDLLEIFEKNIVKEGDFYSFIS | -2.3
HMNMLGSNIKYLRNRHKLSQQELSEKLGVPRSSLSDYERGHTQVGLDSLIKLADIFDVKIDDLLRSNLSHR | -0.0552
HMIVVMARETSTDDLEAIRERIESRGMVAQINLGVERTVIGVMGSIPPDFKDEMELMNGVVEVVMISK | -0.408
HMSFTSQSVLIEIVRGTTQLTPLAAAVGANKREVVLAVHRLKQRGLVVSAGLGQYAATEAGRAFLTAGREV | -2.76
HMEGTVQQDKFDAYKAKFEDAISNDLNTSMAITIIYDLLKDDMNDKTKLALINDFDKVLSLNLTTA | -0.255
HMHVSLSGKIHSELRKLILNGELKAGERLPSEPDLAHELGVSRNSLREAIGLLQREGLLLKKHGIGTFVTD | -0.829
HMQDTYLYPVQHNGKVRLQVELPAKGLPEDLVRLALAHPKVVEWLNGRIPTKTIAVPGRIINMVLPNQ | -0.134
HMQDKLLRKKEVLEMVSITNSTMYRMIGSGQFPRPIRLDNANINSGVRWKLSEINTFIEQRF | -0.409
HMNRKLKAKATREKIYKSAEKLFSQNDYNKVSVDAIVEAAGVAKGSFYVHFASKDALIAMLINDH | -0.179
HMDIANEQEQIFITAMRNDDFNPILELKMKGYQPSKNVLKSLQPDVSSTTFIAAAKIFQMEGVL | -0.144
HMLVTQSITVPMAMSGIRLDAALAMLFPDHSRNRLKAWLDDGHILVDGAVWAGKQRLEGNEEITATLPEAK | -0.207
HMFFMTMGEKIQLLRKKQNWSQETLAEKLSVSRQAVSLWERDESQPELDKLLKLAKIFSVTTDYLIDDSVT | -0.386
HMEVVVPDFEKIYIRDLDKFVEGHNVRYEIVDSIYNLEKDKGTVVDQDPEPGSKVKHGRVIYLTVNAML | -0.207
HMQGPDPYAVLGIDRHADERAIKRAYRKLISEHHPDRLGDLPEDMRKRAESRASEINAAYDRIKEARGF | 0.0487
HMRSFRIGGLVEQGSIARDGQSLTVRFAVTDLAHKIPVTYTGLLPDLFKEGKGVVAEGKLGPDGVFHASQV | -0.0153
HMKNNAIAPDQVVSLLKNEVNYNDDGRIEILDNNKNIRYNSKGELLTIEERVNEFLDANPHFRK | -0.119

----------
experiment: soluble fraction after stress (log2 fold change); higher = more stays soluble; pooled small domains, quantitative proteomics; settings: stress: 50 degC
Each entry below carries its reported soluble fraction (log2).

chain | comparator | soluble fraction (log2)
HMRHSLAAALTELRRLAALDLGDFFRFEYVSHTDSLGGKQQAYTEGIRVSFGVYLGVNKKDRLNVDPVV | = | -3.44
HMKTLNKRQQDIINLAREEGFVTVEHLSEYFKVTQQTIRRDLGYLSENLYLARTYGGAFFQS | = | -0.872
HMIHQIPVNVQKIRQIIGINLNENDYLNYLAKLGFVIDEGLIIVPSFRSDVKTQNDLAEEIARV | = | -0.444
HMTQSQSLQSQFEQLEKAYQDNLHLLSPKQKLIIQEAGKIIQQLPQQAQIQAKVNLYQSLSAEISKESQQ | = | 0.118
HMSPILTPDQATKAYGKDGVLYIHSNKERTIYIYDVTGRTVRILEAVEGENQINGLEKGIYFLEGQKVAV | = | -0.233
HMSQIDLQIGHKIKSKRRKLGISQADMAKKLYISPSYLNLIESGKRKINVDLLLKLSNELGIEMSDIS | = | -0.478
HMSTTSYTQFMEDAKAGKIARVDIKGREITVTPTEGSRYVITSPGDLWMVDDLRKDGVQVYGPP | = | 0.101
HMNDPNAPITENQLKAIHVLLDKLKVDDNLKHAYIADVLQLDNEPETLKTLTKAQGSMAIERMQLLKDN | = | 0.328
HMGGGTPEERLATLAAIAERQEMLLERLGPNNPLVSLGQYSRTLSRMVQLAGFKDASQYFNELPLDFQMPE | = | -0.212
HMPGLDTTILSDILSLKKELPSRSAAKILIMLILAKRIEEGSLNLRTINRILNQYGYTRESLL | = | 0.0736
HMVSLSENQKIVLESLNTAMSARELMEILNLSDISHFRRNILNPLLLEGLIVRTKPDKPKSSKQKYIKANF | = | -1.15
HMKDGAKYFQLFGLLKNEINRGIYQSGQKIPGENELAEKYGMSRQTVRQALSLLEQESLIERRQGSGTYVR | = | 0.108
HMVAPNSEATTKLIIEKTKYANESPAILMGFKATATMLMAKHVVLPTSKYAYFNEGRALLEKAIK | = | -0.0203
HMKHSEAIELGKRMLSQALQDVSLVLKKIPEERLQAVAAELNLKTPDELFEKIGLGERLAALVARRLLP | = | -0.207
HMKLFGTPGSPFARKVRIVLEEKRIPHEYIIERGSAPGSRVPQYNPLGKVPTLVLDDGRGLYDSPVIVEYL | = | -0.492
HMADFIKEIKTNNPRQLLKSILSSFMPRALILELEMLLWNDLKSKPIGEWSNTQIENVGKLLNNWILKPAA | = | 0.0698
HMQTTKTGTITASSLYVRSGASTSHKVLGTVSKGKTVQIKDTQDGWHKISYNGDHGWVSGKYVSTT | ≥ | 0.62
HMAIDWVQIKAEYISGTMSASKLAEKHGVSVYAIRKRSGKERWQELRRQNQSETANKIAEKI | = | -1.6
HMQTEFVISSGEQPKRLDVFLLQREPYLSRAALQRMIAAGWVRVNNHLAKSSQRIKAGDVIVFD | = | -1.41
HMEKSQIHLIHTRYVNPEQLVPILSMVIPAENIYVKSDSNLIIINGSSEMLREVESIVSKLDVPS | = | 0.0228
HMIVNTTRAPYLLGETEQDAMRLARQAGLVPEIVRQSSAEPAGTVILQSHDFDYRMRRGSVILITVSTGPL | = | -2.15
HMVVQTELVRISITSLSGEDIRRLVQIKVVGATIEPFEGGGFLITGTAEQIAKAKDFLNSMSTEF | = | -0.855
HMKPLIIPLELMQRLSSDKQLEAGFNRFSKSKQHEFAAYIAAAKRVETKVKRLEKIIPLILSGEGLNDR | = | -1.36
HMNMGEKIRSLIGQFGVTSEDLKNLSVANLLIRMNQEAGDSKTKGILASLLETVNKAGVGNLTPDALGIK | = | -0.00161
HMALLSDEERIATVFAARLGGYSHQEIYKLLQDRFGPSLPAAYSEKSVLTDLQTALSQVPSL | = | -0.208
HMGPVPLASAADMEKFYSHLQQVLDEVDFKDRTGSGHLMARLRRLFQRTVLDQNEINILRGILMAVQGRR | = | -2.85
HMEHIEVDTSHIAVGSKVKHKAFGLGEITDKGNTYVFVKFDGQAIPKKFQFPGAFTQGFLTK | = | 0.144
HMKILVTDDNIRIDKYLTTQTEYSRSTIQKMIESNNILVNNKPTKSNYILRNNDEITIDENFNEE | = | -0.11
HMLEQISDINILSGYAKEVIAENPKTVSDYLSGKAAAFQALVGQVMKKTGGRGNPVIIQEILKRLIHKK | = | 0.116
HMLEKVLDNHIHKLRLQHKISQQELADAIGVSRKTISTVETGRFTPSVVIALKIAAHFSVSVEQVFTL | = | -0.964
HMDNAILQELYDYYKEDPSLSQSELIISMLTRIQEAVGYVSKDVQEEVARLAGVNRGYVAAIIKNLPHL | = | -0.747
HMRDIGKNIRYYREKKGYSQEQLAQLLFVTRQTVSNYETSRSRPDVETLVKLAGLLDIDVTDLIYGPR | = | -0.651
HMINIDESIDESLSEDDAVLDLLERASASFTKAQEALLEGDLGRYQTLIEQADRLVAKALELLDEKN | = | -0.457

Reference source: the domain aggregation screens of Martell et al. (2025)
